- Experimental system: Nrg2 (UniProt P38082)
- Sequence: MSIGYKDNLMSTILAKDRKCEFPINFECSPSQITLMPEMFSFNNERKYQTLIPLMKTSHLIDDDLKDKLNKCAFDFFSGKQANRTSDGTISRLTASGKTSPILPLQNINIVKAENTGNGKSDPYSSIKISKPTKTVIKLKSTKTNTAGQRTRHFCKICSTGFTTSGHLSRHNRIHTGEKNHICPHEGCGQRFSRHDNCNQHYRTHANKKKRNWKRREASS
- Test description: PBM E-score (8-mer binding enrichment) (E-score (-0.5 to 0.5)); higher = stronger / more preferred TF binding
- Cond: protein concentration: 100 nM; construct: GST-full length
In all, about 33,000 sequences were measured (“E-score (-0.5 to 0.5)”: median about -8e-05, highest 2% from about 0.23 on). Many of the other results were omitted from the sample, so the highest values are more common in it than they were.
Label N if PBM E-score falls below 0.01; label Y in every other case.

Check if PBM E-score >= 0.01 (inclusive). Item: ACGACCCG
Y

CTTAAAAC , same question.
Y

One more sequence: ATCCGTAA
N

Request: GTCACGGA
N

Follow-up item: ACTATTAA
Y

Now consider CAGGGACG .
Y

Ok, now AATGGAAC
Y

Follow-up item: ATTAAAAG
Y

Check AGAGCTAC too.
N

What do we get for GTAAATTA ?
N

Field entry: GCCGCCAC
N

Same lookup for CGTCCTTA , please.
N

Would you mind doing ACTGTGGA as well?
N

Also check CCCATGAC
N

Now the same for AAGGGACT
Y

Same question for GAGGCCTC please.
N

One more sequence: ACCTCAAC
Y

Repeat with GTCATTAA
Y

Please do the same for CCTCGTAC as well.
Y

Same lookup for AATGGAAT , please.
Y

Would you kindly repeat that for AGTATTAA ?
Y

Same question for ATTAAAAC please.
Y

Try this sequence next: ACCAGTCG
N

And the next one, ATTAAAAT ?
Y

Another: ACAAGCGC
Y

Cool, now CAGGGACC
Y

Subsequent entry: CATTGCAG
Y

What do you get for CCTATCGC ?
N

Similarly, GAACTGCA ?
Y

What do we get for CCGGCGAA ?
Y

Note, next up: GCCACGGA
N

Please do the same for ATTATACC as well.
Y

Repeat for the following sequence: AATGGAAG
Y

---

- Experimental system: Nrg2 (UniProt P38082)
- Sequence: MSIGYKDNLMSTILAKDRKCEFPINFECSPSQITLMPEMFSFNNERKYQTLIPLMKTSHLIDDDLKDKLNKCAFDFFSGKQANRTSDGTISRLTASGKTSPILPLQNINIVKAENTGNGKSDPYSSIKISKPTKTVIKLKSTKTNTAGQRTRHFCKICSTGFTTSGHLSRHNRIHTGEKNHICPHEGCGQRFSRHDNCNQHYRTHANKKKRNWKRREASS
- Test description: PBM E-score (8-mer binding enrichment) (E-score (-0.5 to 0.5)); higher = stronger / more preferred TF binding
- Cond: protein concentration: 100 nM; construct: GST-full length
Whole data set: some 33,000 sequences, median “E-score (-0.5 to 0.5)” near -8e-05, cut for the highest 2% near 0.23. Shown is part of a subset that was picked to be rich in the highest values.
Metric: PBM E-score

Which value of PBM E-score has been reported for CCGTCCGA in the records?
-0.257

// query: AGCCTACG
0.0365

And AGGGACGA ?
0.248

And the next one, GGGCTGCA ?
0.0573

Record: AATTCGCG
0.202

Next record, please: AAGGACCT
0.0061

Entry CCCGACCG please
-0.0769

// next record ACTAAGAA
0.221

Also, AATTCGCA please.
0.229

How about CTGGACCC ?
0.275

Try this sequence next: CTGGACCA
-0.0552

This collection of values is drawn from the supplement of paper PMC3334620.
